# tested on: hNK3R (Homo sapiens, UniProt P29371)
# Construct: host or cells: COS-7
# Sequence (P29371 whole entry): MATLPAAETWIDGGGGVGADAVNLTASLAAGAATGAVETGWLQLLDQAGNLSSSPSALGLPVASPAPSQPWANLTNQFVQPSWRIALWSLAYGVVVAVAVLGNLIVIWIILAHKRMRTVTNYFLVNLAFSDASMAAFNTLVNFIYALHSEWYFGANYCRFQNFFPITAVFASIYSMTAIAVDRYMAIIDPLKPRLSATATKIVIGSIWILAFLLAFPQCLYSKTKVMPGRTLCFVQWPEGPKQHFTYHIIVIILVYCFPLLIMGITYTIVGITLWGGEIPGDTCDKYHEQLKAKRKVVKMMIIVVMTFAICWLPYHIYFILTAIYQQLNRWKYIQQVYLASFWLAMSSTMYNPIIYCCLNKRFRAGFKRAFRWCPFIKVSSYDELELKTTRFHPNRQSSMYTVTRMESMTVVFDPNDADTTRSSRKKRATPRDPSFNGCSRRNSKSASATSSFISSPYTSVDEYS
# experiment notes: IP3 assay (inositol trisphosphate, 3H-myoinositol) in transiently transfected COS-7 cells
# Format: cell-based
# test context: COS-7 cells, 0.2% ovalbumin buffer; read-out: hNK3, IP3 EC50
Numbered stars: 1 amine (or outer) side, 2 acyl side, 3 side chain; on linkers, the order of the positions; unused ones are H or OH. Square brackets hold non-standard residues; d marks the D form. Peptide text beside a SMILES is read from it. * marks the point of attachment. C18 diacid = O=C(O)CCCCCCCCCCCCCCCCC(=O)*; γGlu = O=C(O)[C@H](CCC(=O)[*:2])N[*:1]; NMeL = CN[C@@H](CC(C)C)C(=O)O; Nle = CCCC[C@H](N)C(=O)O; AEEA = NCCOCCOCC(=O)O
Kindly state pEC50 for each of the entries shown.
Give bare numbers, as −log10 of the molar value.

[
  {
    "compound": "CSCC[C@H](NC(=O)[C@H](CC(C)C)N(C)C(=O)CNC(=O)[C@@H](NC(=O)[C@H](Cc1ccccc1)NC(=O)[C@H](CCCCNC(=O)COCCOCCNC(=O)COCCOCCNC(=O)CC[C@H](NC(=O)CCCCCCCCCCCCCCCCC(=O)O)C(=O)O)NC(=O)[C@H](CC(=O)O)NC(C)=O)C(C)C)C(N)=O",
    "tested on": "hNK3R (Homo sapiens, UniProt P29371)",
    "pEC50": 6.80
  }
]

API: the following record is the query input.
Ask: Any idea what pEC50 came out for CCCC[C@H](NC(=O)[C@H](CC(C)C)N(C)C(=O)CNC(=O)[C@@H](NC(=O)[C@H](Cc1ccccc1)NC(=O)[C@H](CCCNC(=N)N)NC(=O)[C@H](CCC(=O)O)NC(=O)COCCOCCNC(=O)COCCOCCNC(=O)CC[C@H](NC(=O)CCCCCCCCCCCCCCCCC(=O)O)C(=O)O)C(C)C)C(N)=O [compound 337, *Glu;Arg;Phe;Val;Gly;NmLeu;Nle;NH2] ({C18 diacid-γGlu-AEEA-AEEA}-ERFVG[NMeL][Nle]-NH2) on hNK3R (Homo sapiens, UniProt P29371)?
Result: 7.37
